Target: T1, full-length beta-Catenin (Uniprot ID P35222) (Homo sapiens (Human), UniProt P35222 2-781)
T1 construct: The assay protocols say only 'full-length'; No tag is stated, although the AlphaScreen kit is a Histidine (Nickel Chelate) kit; also called B-Catenin; bCat
T1 sequence: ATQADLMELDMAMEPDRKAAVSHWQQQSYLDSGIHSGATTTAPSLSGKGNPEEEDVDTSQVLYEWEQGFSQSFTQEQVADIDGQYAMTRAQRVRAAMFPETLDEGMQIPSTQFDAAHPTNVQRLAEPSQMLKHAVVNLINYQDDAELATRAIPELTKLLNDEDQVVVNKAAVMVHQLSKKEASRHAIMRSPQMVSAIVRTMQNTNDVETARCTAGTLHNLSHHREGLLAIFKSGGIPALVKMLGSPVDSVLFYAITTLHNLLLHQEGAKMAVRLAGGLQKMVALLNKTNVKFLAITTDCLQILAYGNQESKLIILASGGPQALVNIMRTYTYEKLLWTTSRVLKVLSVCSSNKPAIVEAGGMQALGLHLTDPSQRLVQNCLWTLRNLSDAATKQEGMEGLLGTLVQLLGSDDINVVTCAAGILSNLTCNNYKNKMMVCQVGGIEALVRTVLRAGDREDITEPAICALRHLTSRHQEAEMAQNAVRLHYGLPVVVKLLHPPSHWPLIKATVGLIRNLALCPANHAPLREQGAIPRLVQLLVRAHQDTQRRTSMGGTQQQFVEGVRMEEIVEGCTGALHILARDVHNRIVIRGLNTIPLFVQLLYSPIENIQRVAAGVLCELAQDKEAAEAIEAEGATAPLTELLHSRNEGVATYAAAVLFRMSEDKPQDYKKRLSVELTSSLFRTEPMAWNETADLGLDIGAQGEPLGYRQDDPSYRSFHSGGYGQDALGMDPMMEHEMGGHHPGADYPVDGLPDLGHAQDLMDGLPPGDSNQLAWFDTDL
Assay: AlphaScreen competition; peptide titrated against full-length beta-catenin + biotin-TCF4(10-53)
Starred links: 1 amine or outer side, 2 acyl side, 3 side chain; linkers in the order of their positions; H or OH if unused. Positions of bridges follow the written chain, without caps; N, C: chain ends. Non-standard residues stand in square brackets, D forms with d. Primed or numbered codes have the meaning given here. B5(16) = 2-amino-2-(pent-4-en-1-yl)hept-6-enoic acid = 2,2-bis(4-pentenyl)glycine (stitching residue), C=CCCCC(CCCC=C)(N[*:1])C(=O)[*:2]; αAllylPro = C=CC[C@@]1(C(=O)O)CCCN1; S8 = C=CCCCCCC[C@](C)(N)C(=O)O
Property: EC50; scope: individual binders
Write down the value, and be sure its unit follows.

See these solved cases before continuing.
Ac-[αAllylPro]DA[B5(16)]DAAAFV[S8]FWQ-NH2 (staple 1-4, 4-11, Stapled peptide composition; also called Ac-PL3-Asp-Ala-B5-Asp-Ala-Ala-Ala-Phe-Val-S8-Phe-Trp-Gln-NH2) [I-352]
0.377 µM
XDAXDDAAFVXAWQ (not fully specified; N-terminal Ac; C-terminal NH2; PL3 at 1, B5 at 4, S8 at 11 (stapled 1-4 and 4-11), Stapled peptide composition; Later-eluting isomer composition; also called Ac-PL3-Asp-Ala-B5-Asp-Asp-Ala-Ala-Phe-Val-S8-Ala-Trp-Gln-NH2) [I-356]
8.2 µM

Give me measured EC50, please, for this binder: XDAXDDAAFVXFAQ (not fully specified; N-terminal Ac; C-terminal NH2; PL3 at 1, B5 at 4, S8 at 11 (stapled 1-4 and 4-11), Stapled peptide composition; Earlier-eluting isomer composition; also called Ac-PL3-Asp-Ala-B5-Asp-Asp-Ala-Ala-Phe-Val-S8-Phe-Ala-Gln-NH2) [I-357]
10 µM

Give me measured EC50, please, for this binder: XDAXADAAFVXFWQ (not fully specified; N-terminal Ac; C-terminal NH2; PL3 at 1, B5 at 4, S8 at 11 (stapled 1-4 and 4-11), Stapled peptide composition; Later-eluting isomer composition; also called Ac-PL3-Asp-Ala-B5-Ala-Asp-Ala-Ala-Phe-Val-S8-Phe-Trp-Gln-NH2) [I-351]
10 µM

Give me measured EC50, please, for this binder: XDAXDDAAFVXAWQ (not fully specified; N-terminal Ac; C-terminal NH2; PL3 at 1, B5 at 4, S8 at 11 (stapled 1-4 and 4-11), Stapled peptide composition; Earlier-eluting isomer composition; also called Ac-PL3-Asp-Ala-B5-Asp-Asp-Ala-Ala-Phe-Val-S8-Ala-Trp-Gln-NH2) [I-355]
10 µM

Give me measured EC50, please, for this binder: XAAXDDAAFVXFWQ (not fully specified; N-terminal Ac; C-terminal NH2; PL3 at 1, B5 at 4, S8 at 11 (stapled 1-4 and 4-11), Stapled peptide composition; Later-eluting isomer composition; also called Ac-PL3-Ala-Ala-B5-Asp-Asp-Ala-Ala-Phe-Val-S8-Phe-Trp-Gln-NH2) [I-349]
7.19 µM

Give me measured EC50, please, for this binder: XAAXDDAAFVXFWQ (not fully specified; N-terminal Ac; C-terminal NH2; PL3 at 1, B5 at 4, S8 at 11 (stapled 1-4 and 4-11), Stapled peptide composition; Earlier-eluting isomer composition; also called Ac-PL3-Ala-Ala-B5-Asp-Asp-Ala-Ala-Phe-Val-S8-Phe-Trp-Gln-NH2) [I-348]
10 µM

Give me measured EC50, please, for this binder: XDAXADAAFVXFWQ (not fully specified; N-terminal Ac; C-terminal NH2; PL3 at 1, B5 at 4, S8 at 11 (stapled 1-4 and 4-11), Stapled peptide composition; Earlier-eluting isomer composition; also called Ac-PL3-Asp-Ala-B5-Ala-Asp-Ala-Ala-Phe-Val-S8-Phe-Trp-Gln-NH2) [I-350]
10 µM

Give me measured EC50, please, for this binder: XDAXDDAAFVXFAQ (not fully specified; N-terminal Ac; C-terminal NH2; PL3 at 1, B5 at 4, S8 at 11 (stapled 1-4 and 4-11), Stapled peptide composition; Later-eluting isomer composition; also called Ac-PL3-Asp-Ala-B5-Asp-Asp-Ala-Ala-Phe-Val-S8-Phe-Ala-Gln-NH2) [I-358]
10 µM
